Catalogue of compounds with associated %Inh
tested on: MERTK; conditions: concentration: 1 μM, replicates: in singlicate; n = 1;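 note: KINOMEscan kinase panel screen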
Give the number; % is assumed, so skip it.

Please review the entries below; each comes with its answer.
compound	%Inh, %
Cc1ccc(NC(=O)Nc2ccc(Cl)c(C(F)(F)F)c2)cc1-c1ccc(C(=O)Nc2ccncc2)cc1 [GSK1398470]	0
CNc1nc(-c2ccc3c(N)n[nH]c3c2)cc(N2C[C@@H](C(=O)NC3CCCCC3)OC[C@H]2C)n1 [GSK2375584]	2
CNc1cc(-c2ccc3c(N)n[nH]c3c2)nc(N)n1 [GSK2224810]	31

Moving on to the next compound.
Problem: Requested read-out %Inh, target or system MERTK, entry Nc1nccc(-c2c(-c3ccc(F)cc3)ncn2C2CCN(Cc3ccccc3)CC2)n1 [SB-219980]
Solution: 0

* * *

Recorded %Inh for the following compounds
system: EPHA6; conditions: concentration: 1 μM, replicates: in singlicate; n = 1
Give just the numeric value; % need not be written.

Problem: Recorded %Inh for COc1ccc(CSc2nnc(-c3ccc4nccn4c3)o2)cc1C(F)(F)F , please?
Solution: 9

Problem: Now the compound CCCCc1nn2ncccc2c1-c1ccnc(NC2CC2)n1 [GW684374]
Solution: 0

Problem: Item: Cc1c(Cn2c3ccccc3n3c(=O)cc(N4CCOCC4)nc23)cccc1C(F)(F)F [GSK2306394]
Solution: 0

Problem: Now the same for Cc1c(Cn2c(C)c(C)n3c(=O)cc(N4CCOCC4)nc23)cccc1C(F)(F)F [GSK2328680]
Solution: 0

* * *

Below: a set of entries, each annotated with reported %Inh.
system: NEK2; settings: concentration: 1 μM, replicates: in singlicate; n = 1
Reply with just the number (in %).

Here is how some compounds turned out for %Inh.
compound	subject.of.test	%Inh / %
O=c1cc(N2CCOCC2)nc2n(Cc3ccccc3F)ccn12	NEK2	0
COc1nccc(-c2c(-c3ccc(F)cc3)ncn2CCCN2CCOCC2)n1	NEK2	0
CS(=O)(=O)Cc1ccc(Nc2nccc(-c3c(-c4cccc(NC(=O)C5CCCCC5)c4)nn4ncccc34)n2)cc1	NEK2	10
CN1c2ccc(-c3ccc(C(N)=O)cc3)cc2-c2[nH]ncc2S1(=O)=O	NEK2	0
COc1cc2ncnc(Nc3cccc(Br)c3)c2cc1OC.Cl	NEK2	0

Could you now consider this next compound?
Problem: Request: %Inh, test system NEK2, entry Nc1cccc(-c2ccc3c(N)n[nH]c3c2)n1
Solution: 7

* * *

Below: a set of entries, each annotated with reported %Inh.
tested on: TIE2; construct: gene TEK; details: concentration: 1 μM, replicates: in singlicate; n = 1
Report only the number, with the unit % understood.

// solved cases for %Inh follow
compound	%Inh / %
Cc1ccc(NC(=O)Nc2ccc(Cl)c(C(F)(F)F)c2)cc1-c1ccc(C(=O)Nc2ccncc2)cc1 [GSK1398470]	0
CNCc1ccc2nc(NC(=O)c3ccc(C(C)(C)C)cc3)cn2c1	4

Now consider the entry below.
Problem: What measured %Inh goes with COC(=O)C(NC(=O)NC1CCN(c2ccnc(Nc3ccc(F)cc3)n2)C1)c1ccccc1 (stereo not drawn) [GSK1379712] ?
Solution: 0

* * *

system: CTK; construct: gene MATK; conditions: concentration: 1 μM, replicates: in singlicate; n = 1
measured.property: %Inh (%)
Dear colleague, please return just the value in %, with no unit written.

Sample answers from the record:
compound	measured.property	endpoint.value
COC(=O)C(NC(=O)NC1CCN(c2ccnc(Nc3ccc(F)cc3)n2)C1)c1ccccc1 (stereo not drawn)	%Inh	0
O=C1NC(=O)C(c2ccc(Cl)cc2)=C1Nc1cccc(Cl)c1	%Inh	16
COc1ccc(Nc2nccc(-c3ccc(NC(=O)c4cc5cc(F)ccc5[nH]4)cc3)n2)cc1	%Inh	0
CN1c2ccc(-c3ccc(C(N)=O)cc3)cc2-c2[nH]ncc2S1(=O)=O	%Inh	0
COC(=O)c1cccc(NC(=O)NC2CCN(c3ccnc(Nc4ccc(F)cc4)n3)C2)c1 (stereo not drawn)	%Inh	0
CCCCc1nn2ncccc2c1-c1ccnc(NC2CC2)n1	%Inh	0

Problem: What %Inh value was documented for this compound, COc1nccc(-c2c(-c3ccc(F)cc3)ncn2CCCN2CCOCC2)n1 ?
Solution: 22

Problem: What do we get for COC(=O)C(Cc1ccccc1)NC(=O)NC1CCN(c2ccnc(Nc3ccc(F)cc3)n2)C1 (stereo not drawn) ?
Solution: 0

Problem: // same read-out, input: Cc1c(Cn2c3ccccc3n3c(=O)cc(N4CCOCC4)nc23)cccc1C(F)(F)F
Solution: 10
